Provenance of the data: the RNAGym collection of RNA variant scans (doi:10.1093/molbev/msab373)

B1: Azoarcus group I ribozyme (parent)
chain: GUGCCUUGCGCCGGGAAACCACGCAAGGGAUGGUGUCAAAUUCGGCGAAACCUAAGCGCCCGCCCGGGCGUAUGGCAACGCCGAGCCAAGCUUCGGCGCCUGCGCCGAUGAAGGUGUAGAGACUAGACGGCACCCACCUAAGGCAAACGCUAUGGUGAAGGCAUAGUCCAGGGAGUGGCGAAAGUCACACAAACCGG

Variants of: B1
Assay: reverse-splicing fitness (ratio to wild type); higher = more active; in vitro selection; Mg2+ level not given
Mark 0 for reverse-splicing fitness values under 0.004, and 1 for everything at or above.

Q: Please tell me: is the variant C82G A120U A145U C150A C169U U176A at or over 0.004 in terms of reverse-splicing fitness?
Result: 0

Q: Please tell me: is the variant C82A A111G A120U C150A C169A U176C at or over 0.004 in terms of reverse-splicing fitness?
Result: 0

Q: Please tell me: is the variant C82U A111G A120G C150G C169A U176A at or over 0.004 in terms of reverse-splicing fitness?
Result: 1

Q: Please tell me: is the variant C82A A111U A120U A145C C150A C169A U176A at or over 0.004 in terms of reverse-splicing fitness?
Result: 0

Q: Please tell me: is the variant C82A A120U A145C C150A C169A U176G at or over 0.004 in terms of reverse-splicing fitness?
Result: 0

Q: Please tell me: is the variant C82G A111C A120C A145G C169A U176G at or over 0.004 in terms of reverse-splicing fitness?
Result: 1

Q: Please tell me: is the variant A111G A120C A145U C150U C169A at or over 0.004 in terms of reverse-splicing fitness?
Result: 1

Q: Please tell me: is the variant C82A A111U A120U A145U C150U C169G U176C at or over 0.004 in terms of reverse-splicing fitness?
Result: 0

Q: Please tell me: is the variant C82A A111C A120U C150G at or over 0.004 in terms of reverse-splicing fitness?
Result: 1

Q: Please tell me: is the variant C82A A111G A145C C150A C169U U176G at or over 0.004 in terms of reverse-splicing fitness?
Result: 1

Q: Please tell me: is the variant C82A A111U A120G A145C C150U U176A at or over 0.004 in terms of reverse-splicing fitness?
Result: 1

Q: Please tell me: is the variant A120G A145U C169A U176C at or over 0.004 in terms of reverse-splicing fitness?
Result: 1

Q: Please tell me: is the variant C82G A111C A120U C150A C169G U176G at or over 0.004 in terms of reverse-splicing fitness?
Result: 0

Q: Please tell me: is the variant C82G A111C A120G A145C C150G U176C at or over 0.004 in terms of reverse-splicing fitness?
Result: 1

Q: Please tell me: is the variant C82A A111U A120U A145U C150U C169U U176C at or over 0.004 in terms of reverse-splicing fitness?
Result: 0

Q: Please tell me: is the variant C82A A111G A145C C150U C169G U176A at or over 0.004 in terms of reverse-splicing fitness?
Result: 1

Q: Please tell me: is the variant C82G A120G A145G C150A C169U U176G at or over 0.004 in terms of reverse-splicing fitness?
Result: 1

Q: Please tell me: is the variant A111G A120U A145C C150U C169U U176A at or over 0.004 in terms of reverse-splicing fitness?
Result: 1

Q: Please tell me: is the variant C82U A120G C150A C169G U176A at or over 0.004 in terms of reverse-splicing fitness?
Result: 1

Q: Please tell me: is the variant C82U A111G A120G C150U C169A U176A at or over 0.004 in terms of reverse-splicing fitness?
Result: 1

Q: Please tell me: is the variant C82U A120G A145U C150U C169G U176G at or over 0.004 in terms of reverse-splicing fitness?
Result: 0

Q: Please tell me: is the variant C82U A111C A120C A145C C169G at or over 0.004 in terms of reverse-splicing fitness?
Result: 1
